# Tested on: Nucleic Acid
# Protocol notes: In vitro ability to inhibit HSV DNA polymerase activity in vitro using activated calf thymus DNA as atemplate at dose 25 ug/mL
# Type: nucleic-acid assay
# Measurement conditions: herpes simplex virus
Decision: inhibition >= 30% yields Criterion met, all other cases yield Criterion not met.

Illustrative cases are given below, each with its answer.
Q: Check the entry `Cl.Cl.Cn1cc(NC(=O)c2cc(NC(=O)c3cc(NC=O)cn3C)cn2C)cc1C(=O)NCCC(=N)N` : does inhibition equal or exceed 30%?
A: Criterion not met

Q: Check the entry `Cl.Cl.Cn1cc(NC(=O)c2cc(NC(=O)c3cc(NC(=O)CN=C(N)N)cn3C)cn2C)cc1C(=O)NCC(=N)N` : does inhibition equal or exceed 30%?
A: Criterion met

Q: Check the entry CC(CC(=N)N)NC(=O)c1cc(NC(=O)c2cc(NC(=O)c3cc(NC(=O)CN=C(N)N)cn3C)cn2C)cn1C.Cl.Cl (stereo unspecified) : does inhibition equal or exceed 30%?
A: Criterion not met

Continuing:
Q: Check the entry `Cl.Cl.Cn1cc(NC(=O)c2cc(NC(=O)c3cc(NC(=O)CN=C(N)N)cn3C)cn2C)cc1C(=O)NCCC(=N)N` : does inhibition equal or exceed 30%?
A: Criterion not met

Q: Check the entry `Cl.Cn1cc(NC(=O)c2cc(NC(=O)c3cc(NC(=O)CN=C(N)N)cn3C)cn2C)cc1C(=O)NCCC#N` : does inhibition equal or exceed 30%?
A: Criterion not met
